test_system: mCTLA-4-Fc (R&D Systems) (mouse, UniProt P09793 36-162)
Sequence (P09793 whole entry): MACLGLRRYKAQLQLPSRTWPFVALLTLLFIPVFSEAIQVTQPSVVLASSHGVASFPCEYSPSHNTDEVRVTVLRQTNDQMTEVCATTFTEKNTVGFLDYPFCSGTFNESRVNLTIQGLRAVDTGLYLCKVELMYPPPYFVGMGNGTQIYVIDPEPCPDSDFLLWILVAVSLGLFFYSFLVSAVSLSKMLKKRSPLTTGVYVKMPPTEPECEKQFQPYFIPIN
measurement_protocol: SPR; KD listed beside Tm
We begin with a simple list: items and their reported Kd.
# number only, unit nM dropped from output

Known Kd results, listed for orientation:
binder	measured_attribute	measurement
hNGAL mutein S140.4-B16 (designed binder, tagged entry not tied to the name; not shown: N-terminal T7 detection tag from vector phNGAL37; C-terminal Strep-tag II from vector phNGAL37) QDSTSDLIPAPPLSKVPLQQNFQDNQFHGKWYVVGLAGNRILRDDQHPMNMYATIYELKEDKSYNVTSVIFPHKKCEYTIATFVPGSQPGEFTLSDIKSYGDKTSYLVRVVSTDYNQYAVVFFKLAEDNAEFFAITIYGRTKELASELKENFIRFSKSLGLPENHIVFPVPIDQCIDG	Kd	112
hNGAL mutein S140.1-F09 (designed binder, tagged entry not tied to the name; not shown: N-terminal T7 detection tag from vector phNGAL37; C-terminal Strep-tag II from vector phNGAL37) QDSTSDLIPAPPLSKVPLQQNFQDNQFHGKWYVVGLAGNRILRDDQHPMNMYATIYELKEDKSYNVTSVISSHKKCEYTIATFVPGSQPGEFTLGNIKSYGDKTSYLVRVVSTNYNQYAVVFFKLAEDNAEFFAITIYGRTKELASELKENFIRFSKSLGLPENHIVFPVPIDQCIDG	Kd	27.9

Input line: Item under review: hNGAL mutein S140.2-P24 (designed binder, tagged entry not tied to the name; not shown: N-terminal T7 detection tag from vector phNGAL37; C-terminal Strep-tag II from vector phNGAL37) QDSTSDLIPAPPLSKVPLQQNFQDNQFHGKWYVVGLAGNRILRDDQHPMDMYATIYELKEDKSYNVTSVISSHKKCEYTIATFVPGSQPGEFTLGNIKSYGDKTSYLVRVVSTDYSQYAVVFFKLAEDNAEFFAITIYGRTKELASELKENFIRFSKSLGLPENHIVFPVPIDQCIDG . Reported Kd?
Output line: 47

Input line: Item under review: hNGAL mutein S140.4-O10 (designed binder, also called Onc I-002) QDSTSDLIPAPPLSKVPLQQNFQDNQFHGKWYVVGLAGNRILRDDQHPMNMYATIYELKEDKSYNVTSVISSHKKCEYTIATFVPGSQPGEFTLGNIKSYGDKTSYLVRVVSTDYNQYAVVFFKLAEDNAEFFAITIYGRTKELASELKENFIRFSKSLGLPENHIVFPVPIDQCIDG . Reported Kd?
Output line: 40.8

Input line: Item under review: hNGAL mutein S140.3-P07 (designed binder, tagged entry not tied to the name; not shown: N-terminal T7 detection tag from vector phNGAL37; C-terminal Strep-tag II from vector phNGAL37) QDSTSDLIPAPPLSKVPLQQNFQDNQFHGKWYVVGLAGNRILRDDQHPMNMYATIYELKEDKSYNVTSVIFPHKKCEYTIATFVPGSQPGEFTLGNIKSYGDKTSYLVRVVSTDYNQYAVVFFKLAEDDAEFFAITIYGRTKELASELKENFIRFSKSLGLPENHIVFPVPIDQCIDG . Reported Kd?
Output line: 98
